Test system: HARA
Experiment Summary: relative viability (nuclei count vs DMSO), 5 days (fraction); higher = more cells survive
Cond: first compound 15.81 µM
Quantity Name: relative viability
API note: the answer field is a bare number with no unit suffix.

Observed relative viability on HARA, entry O=C(O)CCCCC(CCSCc1ccccc1)SCc1ccccc1 (centres undefined) [CPI-613] + CS(=O)(=O)CCNCc1ccc(-c2ccc3ncnc(Nc4ccc(OCc5cccc(F)c5)c(Cl)c4)c3c2)o1 [Lapatinib] (partner 2 µM) , equals 0.678

Record O=C(O)CCCCC(CCSCc1ccccc1)SCc1ccccc1 (centres undefined) [CPI-613] + CCNC(=O)c1noc(-c2cc(C(C)C)c(O)cc2O)c1-c1ccc(CN2CCOCC2)cc1 [Luminespib] (partner 0.01 µM) / HARA, relative viability recorded as 0.635

Entry O=C(O)CCCCC(CCSCc1ccccc1)SCc1ccccc1 (centres undefined) [CPI-613] + COc1cc2c(Oc3ccc(NC(=O)C4(C(=O)Nc5ccc(F)cc5)CC4)cc3F)ccnc2cc1OCCCN1CCOCC1 [Foretinib] (partner 0.25 µM) , tested on HARA, has a reported relative viability of 0.778

I looked up O=C(O)CCCCC(CCSCc1ccccc1)SCc1ccccc1 (centres undefined) [CPI-613] + COc1cccc2cc(-c3nc([C@H]4CC[C@H](C(=O)O)CC4)n4ncnc(N)c34)[nH]c12 [OSI-027] (partner 0.5 µM) and its relative viability for HARA was 0.482

Reported HARA relative viability for item O=C(O)CCCCC(CCSCc1ccccc1)SCc1ccccc1 (centres undefined) [CPI-613] + Nc1nc2[nH]cc(CCc3ccc(C(=O)N[C@@H](CCC(=O)O)C(=O)O)cc3)c2c(=O)[nH]1 [Pemetrexed] (partner 0.2 µM) was 0.229

Bench note, HARA: O=C(O)CCCCC(CCSCc1ccccc1)SCc1ccccc1 (centres undefined) [CPI-613] + CS(=O)(=O)N1CCN(Cc2cc3nc(-c4cccc5[nH]ncc45)nc(N4CCOCC4)c3s2)CC1 [Pictilisib] (partner 1 µM) , relative viability reads 0.409

Recorded relative viability for O=C(O)CCCCC(CCSCc1ccccc1)SCc1ccccc1 (centres undefined) [CPI-613] + O=C(CCCCCCC(=O)Nc1ccccc1)NO [Vorinostat] (partner 1 µM) on HARA was 0.529

Record for O=C(O)CCCCC(CCSCc1ccccc1)SCc1ccccc1 (centres undefined) [CPI-613] + NC(=O)Nc1cc(-c2cccc(F)c2)sc1C(=O)N[C@H]1CCCNC1 [AZD7762] (partner 0.2 µM) under target or system HARA: relative viability reported as 0.0178

Record O=C(O)CCCCC(CCSCc1ccccc1)SCc1ccccc1 (centres undefined) [CPI-613] + CC(=O)c1c(C)c2cnc(Nc3ccc(N4CCNCC4)cn3)nc2n(C2CCCC2)c1=O [Palbociclib] (partner 0.5 µM) ; system HARA; relative viability = 0.26
